Assay read-out IC50; system under study: c-Met (cytoplasmic domain) (Homo sapiens, UniProt P08581).
Sequence (P08581 956-1390 limits assumed): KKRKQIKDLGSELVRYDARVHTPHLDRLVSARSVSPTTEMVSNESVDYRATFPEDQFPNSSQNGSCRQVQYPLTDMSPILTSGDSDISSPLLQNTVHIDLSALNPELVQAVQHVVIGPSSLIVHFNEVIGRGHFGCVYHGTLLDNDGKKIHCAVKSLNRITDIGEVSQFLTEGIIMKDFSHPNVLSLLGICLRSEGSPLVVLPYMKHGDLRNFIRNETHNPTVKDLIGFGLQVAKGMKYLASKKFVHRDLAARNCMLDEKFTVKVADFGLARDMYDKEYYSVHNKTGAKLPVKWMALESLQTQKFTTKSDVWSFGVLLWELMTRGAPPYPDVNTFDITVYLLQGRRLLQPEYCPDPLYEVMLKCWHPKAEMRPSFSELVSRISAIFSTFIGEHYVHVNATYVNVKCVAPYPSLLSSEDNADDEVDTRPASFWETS
Structures can show the parent of a compound that is named as a salt.

Answered examples (3):
• CC(c1cc(F)ccc1F)N1C(=O)CNc2ncc(-c3ccc(C(=O)N4CCN(C)CC4)cc3)cc21 (stereo not shown) [Example 152, trifluoroacetic acid salt] = 10 to 100 µM
• CN1CCN(c2ccc(-c3cnc4c(c3)N(S(=O)(=O)c3cc(F)ccc3F)CCN4)cn2)CC1 = 1 to 10 µM
• O=C(c1cnc2c(c1)N(Cc1cc(Cl)ccc1Cl)CCN2)N1CCN(c2ncccn2)CC1 = > 100 µM

# lookup: IC50 of Clc1cc(-c2cnc3c(c2)N(Cc2c(Cl)cccc2Cl)CCN3)ccn1
10 to 100 µM

GET /values?readout=IC50&item= Fc1ccc(F)c(CN2CCNc3ncc(I)cc32)c1
10 to 100 µM

// returns reported IC50 for input O=C(c1ccc(-c2cnc3c(c2)N(Cc2cccnc2Cl)CCN3)cc1)N1CCC(N2CCCC2)CC1
> 100 µM

// IC50 lookup, key: O=C(c1cnc2c(c1)N(Cc1cc(Cl)ccc1Cl)CCN2)N1CCN(c2ccccc2Cl)CC1
> 100 µM

For O=C(c1cnc2c(c1)N(Cc1cc(Cl)ccc1Cl)CCN2)N1CCN(CCc2ccccc2)CC1 , what is its reported IC50?
> 100 µM

---

Structures can show the parent of a compound that is named as a salt.
Recorded IC50 values (baculovirus-expressed ALK (Homo sapiens, UniProt Q9UM73)) are given below.

Some molecules with known IC50 results, for comparison:
• O=S1(=O)CCN(CC#Cc2cnc3c(c2)N(Cc2cc(Cl)ccc2Cl)CCN3)CC1 [Example 174] = 100 to 1000 nM
• CN1CCN(c2ccc(-c3cnc4c(c3)N(Cc3cc(F)ccc3F)CCN4)cn2)CC1 [Example 69] = < 100 nM
• CN(C)CCCCCCNC(=O)c1ccc(-c2cnc3c(c2)N(Cc2c(Cl)cccc2Cl)C(=O)CN3)cc1 [Example 143, trifluoroacetic acid salt] = 100 to 1000 nM
• O=C(c1ccc(-c2cnc3c(c2)N(Cc2cc(Cl)ccc2C(F)(F)F)CCN3)cc1)N1CCN(C(c2ccccc2)c2ccccc2)CC1 [Example 377] = 1000 to 10000 nM
• O=C1CNc2ncc(-c3ccc(NS(=O)(=O)CCN4CCCC4)cc3)cc2N1Cc1ccccc1 [Example 45, trifluoroacetic acid salt] = 1000 to 10000 nM
• O=C(c1cnc2c(c1)N(Cc1cc(Cl)ccc1Cl)CCN2)N1CCN(c2cccc(Cl)c2)CC1 [Example 222] = 10000 to 100000 nM
• CCOC(=O)c1ccc(-c2cnc3c(c2)N(Cc2ccccc2OC(F)(F)F)CCN3)cc1 [Example 297] = 1000 to 10000 nM
• O=C1CNc2ncc(I)cc2N1 [Example 2] = > 100000 nM
• COCCNC(=O)c1ccc(-c2cnc3c(c2)N(Cc2cc(Cl)ccc2C(F)(F)F)CCN3)cc1 [Example 404] = < 100 nM
• O=C(NCc1ccccc1Cl)c1ccc(-c2cnc3c(c2)N(Cc2cc(Cl)ccc2C(F)(F)F)CCN3)cc1 [Example 412] = 100 to 1000 nM

Note: attention shifts to another entry.
Given the molecule Fc1ccc(F)c(CN2CCNc3ncc(-c4ccnc(N5CCOCC5)c4F)cc32)c1Cl [Example 102] , what is its reported IC50?
100 to 1000 nM
